Origin of the recorded values: patent US12371454B2

# testedOn: Kras and SOS1 (biotin-tagged human Kras loaded with GDP, His-tagged human SOS1) (Homo sapiens, UniProt P01116, G12D)
# Construct: made in house; host or cells: E. coli (stated for Kras only)
# Sequence (P01116 1-188 isoform P01116-2 G12D): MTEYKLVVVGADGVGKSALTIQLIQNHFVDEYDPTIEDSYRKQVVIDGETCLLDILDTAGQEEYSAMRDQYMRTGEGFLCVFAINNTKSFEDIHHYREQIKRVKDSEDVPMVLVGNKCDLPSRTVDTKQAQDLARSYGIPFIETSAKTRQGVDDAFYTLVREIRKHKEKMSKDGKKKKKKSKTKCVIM
# protocolText: Protein-protein interaction inhibition between Kras and SOS1 (KrasGl2D-SOS PPI) using AlphaScreen
# Type: binding
# protocolConditions: AlphaScreen; biotin-tagged human Kras loaded with GDP, His-tagged human SOS1; read-out: KRAS G12D-SOS PPI IC50
Positions of bridges follow the written chain, without caps; N, C: chain ends. Non-standard residues stand in square brackets, D forms with d. Residues, ends and D or L forms follow the SMILES beside them. *: point of attachment. hPhe(3-Cl-4-CF3) = N[C@@H](CCc1ccc(C(F)(F)F)c(Cl)c1)C(=O)O; NMeCha = CN[C@@H](CC1CCCCC1)C(=O)O; NMeCba = CN[C@@H](CC1CCC1)C(=O)O; N(CH2CH2)2CF2 = FC1(F)CCN(*)CC1; NMeD = CN[C@@H](CC(=O)O)C(=O)O; NMeL = CN[C@@H](CC(C)C)C(=O)O; NMeV = CN[C@H](C(=O)O)C(C)C; d(β3hA) = C[C@@H](N)CC(=O)O; Piperidide = C1CCN(*)CC1; Ac5c = NC1(C(=O)O)CCCC1; Sar = CNCC(=O)O
propertyLabel: IC50 (nM)
Respond with the bare value in nM.

>  <compound>
CC[C@H](C)[C@@H]1NC(=O)[C@H](CC(C)C)N(C)C(=O)C[C@@H](C)NC(=O)[C@H](CC2CCC2)N(C)C(=O)C2(CCCC2)NC(=O)[C@@H]2CCCN2C(=O)[C@H](CCc2ccc(C(F)(F)F)c(Cl)c2)NC(=O)CN(C)C(=O)[C@H](CC2CCCCC2)N(C)C(=O)CN(C)C(=O)CN(C)C1=O [Compound 59] (cyclo([Ac5c][NMeCba][d(β3hA)][NMeL]I[Sar][Sar][NMeCha][Sar][hPhe(3-Cl-4-CF3)]P))

>  <unitsSymbol>
nM

>  <quantitativeReadout>
36

$$$$

Now look at this one.
Asked: Any idea what IC50 was measured for CC[C@H](C)[C@@H]1NC(=O)[C@H](CC(C)C)N(C)C(=O)C[C@@H](C(=O)N2CCCCC2)N(C)C(=O)[C@H](C(C)C)N(C)C(=O)[C@@H](C)NC(=O)[C@H](CC(=O)N2CCC(F)(F)CC2)N(C)C(=O)[C@H](CCc2ccc(C(F)(F)F)c(Cl)c2)NC(=O)CN(C)C(=O)[C@H](CC2CCCCC2)N(C)C(=O)CN(C)C(=O)CN(C)C1=O [Compound 493] ([NMeL]I[Sar][Sar][NMeCha][Sar][hPhe(3-Cl-4-CF3)][NMeD](N(CH2CH2)2CF2)[dA][NMeV][NMeD]-Piperidide; lactam N-11) ?
Given back: 300

---

Below: a set of entries, each annotated with reported IC50.
# testedOn: Kras and SOS1 (biotin-tagged human Kras loaded with GDP, His-tagged human SOS1) (Homo sapiens, UniProt P01116, G12D)
# Construct: made in house; host or cells: E. coli (stated for Kras only)
# protocolText: Protein-protein interaction inhibition between Kras and SOS1 (KrasGl2D-SOS PPI) using AlphaScreen
# Assay type: binding
# protocolConditions: AlphaScreen; biotin-tagged human Kras loaded with GDP, His-tagged human SOS1; read-out: KRAS G12D-SOS PPI IC50
Positions of bridges follow the written chain, without caps; N, C: chain ends. Non-standard residues stand in square brackets, D forms with d. Residues, ends and D or L forms follow the SMILES beside them. hPhe(3-Cl-4-CF3) = N[C@@H](CCc1ccc(C(F)(F)F)c(Cl)c1)C(=O)O; hPhe(4-CF3) = N[C@@H](CCc1ccc(C(F)(F)F)cc1)C(=O)O; NMePhe(4-Me) = CN[C@@H](Cc1ccc(C)cc1)C(=O)O; NMe4Pal = CN[C@@H](Cc1ccncc1)C(=O)O; NMeCha = CN[C@@H](CC1CCCCC1)C(=O)O; NMeI = CC[C@H](C)[C@H](NC)C(=O)O; NMeD = CN[C@@H](CC(=O)O)C(=O)O; NMeL = CN[C@@H](CC(C)C)C(=O)O; NMeV = CN[C@H](C(=O)O)C(C)C; d(β3hA) = C[C@@H](N)CC(=O)O; NMeA = CN[C@@H](C)C(=O)O; Ac5c = NC1(C(=O)O)CCCC1; Aze = O=C(O)[C@@H]1CCN1; Sar = CNCC(=O)O
Supply the numeric figure in nM, leaving out any unit text.

Here's what some known entries look like.
>  <compound>
CC[C@H](C)[C@@H]1NC(=O)[C@H](CC(C)C)N(C)C(=O)C[C@@H](C(=O)N(C)C)N(C)C(=O)[C@H]([C@@H](C)CC)N(C)C(=O)[C@H](C)NC(=O)[C@H](Cc2ccncc2)N(C)C(=O)[C@H](CCc2ccc(C(F)(F)F)c(Cl)c2)NC(=O)CN(C)C(=O)[C@H](Cc2ccc(C)cc2)N(C)C(=O)[C@@H]2CCN2C(=O)[C@H](C)N(C)C1=O [Compound 1973] ([NMeL]I[NMeA][Aze][NMePhe(4-Me)][Sar][hPhe(3-Cl-4-CF3)][NMe4Pal]A[NMeI][NMeD]-NMe2; lactam N-11)

>  <unitsSymbol>
nM

>  <IC50>
7.1

$$$$
>  <compound>
CC[C@H](C)[C@@H]1NC(=O)[C@H](CC(C)C)N(C)C(=O)C[C@@H](C)NC(=O)[C@H](CC(C)C)N(C)C(=O)C2(CCCC2)NC(=O)[C@@H]2CCCN2C(=O)[C@H](CCc2ccc(C(F)(F)F)cc2)NC(=O)CN(C)C(=O)[C@H](CC2CCCCC2)N(C)C(=O)CN(C)C(=O)CN(C)C1=O [Compound 414] (cyclo([Ac5c][NMeL][d(β3hA)][NMeL]I[Sar][Sar][NMeCha][Sar][hPhe(4-CF3)]P))

>  <unitsSymbol>
nM

>  <IC50>
110

$$$$

// switching to the query compound
Asked: GET /values?readout=IC50&item= CC[C@H](C)[C@@H]1NC(=O)[C@H](CC2CCCCC2)N(C)C(=O)C[C@@H](C)NC(=O)[C@H](C(C)C)N(C)C(=O)C2(CCCC2)NC(=O)[C@@H]2CCCN2C(=O)[C@H](CCc2ccc(C(F)(F)F)c(Cl)c2)NC(=O)CN(C)C(=O)[C@H](CC2CCCCC2)N(C)C(=O)[C@@H]2CCN2C(=O)[C@H](C)N(C)C1=O [Compound 38] (cyclo([Ac5c][NMeV][d(β3hA)][NMeCha]I[NMeA][Aze][NMeCha][Sar][hPhe(3-Cl-4-CF3)]P))
Given back: 160
